meta.source: patent US20110105724A1

Target: T1, human IL-8 (interleukin-8) (human, UniProt P10145 28-99, limits assumed)
T1 construct: also called recombinant human IL-8
T1 sequence (looked up): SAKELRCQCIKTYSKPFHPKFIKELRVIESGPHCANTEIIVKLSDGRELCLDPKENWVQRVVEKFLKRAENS
Experiment: SPR (Biacore T100, 25 C), antibody captured on anti-human IgG, IL-8 as analyte, 1:1 model, Run 2
Entries and their koff values follow.
Give your result in s⁻¹ as a bare value.

// solved cases for koff follow
binder	reported
humanized antibody A0L1 (antibody, human IgG1, kappa, V domains shown, Humanized 1C1.5E5, human IgG1/kappa) VH: QVQLVQSGAEVKKPGASVKVSCKASGYTFTSYWMHWVRQAPGQGLEWMGEIDPSDSNTNYNQKFKGRVTMTRDTSISTAYMELSRLRSDDTAVYYCARELLHAVYWGQGTLVTVSS VL: DIQMTQSPSSLSASVGDRVTITCTASQDIHKYISWYQQKPGKAPKLLIHYTSTLQPGVPSRFSGSGSGTDFTFTISSLQPEDIATYYCLQYDNLWTFGQGTKVEIKR	0.00106
chimeric antibody HcLc made from murine 1C1.5E5 (antibody, human IgG1, kappa, V domains shown, Murine variable regions on human IgG1 and human kappa constant regions; also called chimera) VH: QVQLQQPGVELVMPGASVKLSCKASGYTFTSYWMHWVKQRPGQGLEWIGEIDPSDSNTNYNQKFKGKATLTLDKSSSTAYMQLTSLTSEDSAVYYCARELLHAVYWGQGTLVTVSS VL: DIQMTQSPSSLSASLGGKVTITCTASQDIHKYISWFQHKPGKGPRLLIHYTSTLQPGIPSRFSGSGSGRDYSFSISNLEPEDVATYYCLQYDNLWTFGGGTKLDIKR	0.000566
humanized antibody A1L0 (antibody, human IgG1, kappa, V domains shown, Humanized 1C1.5E5, human IgG1/kappa; also called AIL0) VH: QVQLVQSGAEVKKPGASVKVSCKASGYTFTSYWMHWVRQAPGQGLEWMGEIDPSDSNTNYNQKFKGKVTMTRDTSISTAYMELSRLRSDDTAVYYCARELLHAVYWGQGTLVTVSS VL: DIQMTQSPSSLSASVGDRVTITCTASQDIHKYISWYQQKPGKAPKLLIYDTSTLQPGVPSRFSGSGSGTDFTFTISSLQPEDIATYYCLQYDNLWTFGQGTKVEIKR	0.00075

For the next question, use this binder.
Suppose we examine the binder humanized antibody A0L0 (antibody, human IgG1, kappa, V domains shown, Humanized 1C1.5E5, human IgG1/kappa) VH: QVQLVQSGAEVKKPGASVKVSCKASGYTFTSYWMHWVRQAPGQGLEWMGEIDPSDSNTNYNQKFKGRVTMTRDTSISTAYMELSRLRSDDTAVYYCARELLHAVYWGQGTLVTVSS VL: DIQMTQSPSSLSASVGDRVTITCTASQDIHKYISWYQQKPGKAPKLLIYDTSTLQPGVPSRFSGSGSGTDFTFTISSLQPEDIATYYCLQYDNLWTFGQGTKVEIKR ; what koff value has been reported?
0.000772
